Consider the following binders and their measured % cholesterol efflux/4 hours at 0.3 µg/ml readings.
# Test System: ATP-binding cassette transporter A1 (ABCA1) (UniProt P41233 1-2261, limits assumed)
# Sequence (P41233 whole entry): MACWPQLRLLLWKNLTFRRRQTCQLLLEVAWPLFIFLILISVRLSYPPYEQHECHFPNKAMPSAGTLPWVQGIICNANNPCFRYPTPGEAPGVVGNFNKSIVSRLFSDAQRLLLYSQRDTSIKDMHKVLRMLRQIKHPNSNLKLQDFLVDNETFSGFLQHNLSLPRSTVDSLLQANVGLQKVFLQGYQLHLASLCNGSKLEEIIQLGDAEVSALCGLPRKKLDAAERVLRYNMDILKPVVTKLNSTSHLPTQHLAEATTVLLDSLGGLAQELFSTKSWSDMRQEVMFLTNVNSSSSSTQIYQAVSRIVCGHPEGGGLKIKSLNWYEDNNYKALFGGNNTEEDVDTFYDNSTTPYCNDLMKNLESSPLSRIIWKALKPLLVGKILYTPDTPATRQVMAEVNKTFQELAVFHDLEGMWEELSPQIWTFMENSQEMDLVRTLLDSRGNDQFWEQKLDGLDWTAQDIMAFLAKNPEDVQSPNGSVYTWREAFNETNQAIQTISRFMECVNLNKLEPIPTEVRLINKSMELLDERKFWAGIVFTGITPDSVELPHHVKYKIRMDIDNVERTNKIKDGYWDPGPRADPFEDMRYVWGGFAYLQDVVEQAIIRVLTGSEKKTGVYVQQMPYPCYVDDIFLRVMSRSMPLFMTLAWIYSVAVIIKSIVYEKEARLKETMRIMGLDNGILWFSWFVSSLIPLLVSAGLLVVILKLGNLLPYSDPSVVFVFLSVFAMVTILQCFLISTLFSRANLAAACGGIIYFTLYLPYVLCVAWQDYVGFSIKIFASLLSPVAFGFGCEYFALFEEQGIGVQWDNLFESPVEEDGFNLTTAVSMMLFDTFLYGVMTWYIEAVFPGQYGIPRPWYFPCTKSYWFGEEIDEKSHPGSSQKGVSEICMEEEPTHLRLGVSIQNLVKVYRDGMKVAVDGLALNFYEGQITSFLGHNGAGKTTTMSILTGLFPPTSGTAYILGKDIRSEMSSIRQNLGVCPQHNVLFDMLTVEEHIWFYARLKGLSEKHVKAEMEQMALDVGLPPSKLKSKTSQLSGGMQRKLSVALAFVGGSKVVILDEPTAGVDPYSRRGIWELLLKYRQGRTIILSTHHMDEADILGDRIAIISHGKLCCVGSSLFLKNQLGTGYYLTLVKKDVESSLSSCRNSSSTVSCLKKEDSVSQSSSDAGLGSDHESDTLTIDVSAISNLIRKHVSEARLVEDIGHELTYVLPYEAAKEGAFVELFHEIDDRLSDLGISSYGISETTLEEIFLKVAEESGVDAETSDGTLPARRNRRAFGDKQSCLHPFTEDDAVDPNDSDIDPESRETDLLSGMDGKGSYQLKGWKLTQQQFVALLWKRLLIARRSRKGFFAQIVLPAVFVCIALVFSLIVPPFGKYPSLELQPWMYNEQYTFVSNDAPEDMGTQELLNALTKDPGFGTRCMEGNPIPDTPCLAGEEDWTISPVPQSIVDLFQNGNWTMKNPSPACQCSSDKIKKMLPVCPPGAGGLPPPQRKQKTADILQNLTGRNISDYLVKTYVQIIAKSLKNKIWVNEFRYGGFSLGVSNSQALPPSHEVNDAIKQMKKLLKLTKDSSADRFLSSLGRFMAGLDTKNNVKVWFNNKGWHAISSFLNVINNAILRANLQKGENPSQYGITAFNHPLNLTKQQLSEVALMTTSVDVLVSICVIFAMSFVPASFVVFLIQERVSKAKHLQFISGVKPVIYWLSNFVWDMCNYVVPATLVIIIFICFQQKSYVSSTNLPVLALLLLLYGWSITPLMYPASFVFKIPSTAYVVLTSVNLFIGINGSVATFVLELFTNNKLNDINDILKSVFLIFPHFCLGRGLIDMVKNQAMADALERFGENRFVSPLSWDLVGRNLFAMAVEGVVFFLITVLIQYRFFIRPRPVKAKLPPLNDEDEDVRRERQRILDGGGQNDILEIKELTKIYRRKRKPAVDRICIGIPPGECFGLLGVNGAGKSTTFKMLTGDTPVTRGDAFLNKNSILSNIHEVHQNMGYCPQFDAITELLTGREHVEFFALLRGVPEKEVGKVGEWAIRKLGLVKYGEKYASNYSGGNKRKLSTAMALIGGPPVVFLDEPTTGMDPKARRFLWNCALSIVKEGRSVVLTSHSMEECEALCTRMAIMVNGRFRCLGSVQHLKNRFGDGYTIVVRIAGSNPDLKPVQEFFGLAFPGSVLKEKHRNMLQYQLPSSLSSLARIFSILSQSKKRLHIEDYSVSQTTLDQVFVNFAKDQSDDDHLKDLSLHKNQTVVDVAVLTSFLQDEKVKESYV
# Experiment Summary: cell-based or functional assay
Please respond with the number in % and leave the unit unwritten.

1. ELREKLEAWFELFAEFFARFKS [N356-4] = 0.61
2. ELRAKLEAWFEAFAEFFARF [N356-7] = 0.23
3. ELREKLEAWFELFEEFFARFKS [N356-3] = 0.57
4. ELREKLEAWRELFEEFFARFKS [N356-2] = 0
5. ELREKLEAWFELFAEFFARF [N356-6] = 0.23

Prompt line: Complete the entry with % cholesterol efflux/4 hours at 0.3 µg/ml for ELREKLEAWFEAFEEFFARFKS [N356-1]
Response line: 0

Prompt line: Complete the entry with % cholesterol efflux/4 hours at 0.3 µg/ml for ELREKLEAWFELFAEFFARFK [N356-5]
Response line: 0.31

Numbers sourced from patent US20110190196A1.
